The origin of these recorded values is PubChem BioAssay AID1159580.

Experiment notes: chemical genetic growth profiling, strain panel (AID 1159580);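 note: tested at 20 µM; growth read once vehicle control cultures reached saturation at 30 °C; 1 = growth at the plate median or of vehicle wells; lower values mean less growth of the strain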
Protocol conditions: S. cerevisiae deletion strains, growth OD, locus YER110C, hits give low values
Among all 5,500 compounds or so, about 2,000 (36%) were called active. Another 18% or so got no clear call; they are omitted. The list shows a part of the results.
Entries and their normalized growth

Here is how some compounds turned out for normalized growth.
INSERT INTO measurements (compound, readout_value) VALUES
  ('COc1cc2c(cc1OC)C1C(=O)c3c(O)cc4c(c3OC1CO2)C=CC(C)(C)O4 (stereo not given)', '1.02 (inactive)'),
  ('C=C1C([C@]2(C)C(CC(=O)OC)[C@@](C)(COC(C)=O)OC(=O)C[C@@H]2OC(C)=O)[C@@H](OC=O)[C@H](OC(=O)C(O)C(C)CC)[C@@]2(C)[C@H](c3ccoc3)CC(=O)C12O (stereo not given in full)', '1.01 (inactive)');

Find the recorded normalized growth belonging to NCC1CCC(C(=O)O)CC1 (stereo not given) and report it.
0.988 (inactive)

Find the recorded normalized growth belonging to `O=C(O)c1c2ccccc2cc2ccccc12` and report it.
0.964 (inactive)

Find the recorded normalized growth belonging to `COc1cc2c(cc1OC)[C@@H]1C(=O)c3ccc4oc(C(C)C)cc4c3O[C@@H]1CO2` and report it.
1 (inactive)

Find the recorded normalized growth belonging to `CCN(CC)CCNC(=O)c1cc(Br)c(N)cc1OC` and report it.
0.978 (inactive)

Find the recorded normalized growth belonging to COCCc1ccc(OCC(O)CNC(C)C)cc1 (stereo not given) and report it.
1.01 (inactive)

Find the recorded normalized growth belonging to `CC(C)(OC(=O)c1ccccc1)[C@@H]1Cc2cc3ccc(=O)oc3cc2O1` and report it.
0.973 (inactive)

----------
Experiment notes: chemical genetic growth profiling, strain panel (AID 1159580);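 note: tested at 20 µM; growth read once vehicle control cultures reached saturation at 30 °C; 1 = growth at the plate median or of vehicle wells; lower values mean less growth of the strain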
Protocol conditions: S. cerevisiae deletion strains, growth OD, locus YGR252W, strain gcn5, hits give low values
In all, about 5,500 compounds went through this assay and about 2,000 (36%) were called active. About 18% were inconclusive and are not listed. The list shows a part of the results.
Entries and their normalized growth
Respond with the number and no other words.

INSERT INTO assay_data (compound, observed_property, readout_value) VALUES
  ('C[C@H]1CC2C([C@@H](O)C[C@@]3(C)C2CC[C@]3(O)C(=O)CO)[C@@]2(C)C=CC(=O)C=C12 (stereo partly drawn)', 'normalized growth', 0.947),
  ('C=C1C2CC[C@H]3[C@]4(C)C[C@H](OC5OC(CO)C(OS(=O)(=O)O)C(OS(=O)(=O)O)C5OC(=O)CC(C)C)C[C@@H](C(=O)O)[C@H]4CC[C@]3(C2)[C@H]1O (stereo partly drawn)', 'normalized growth', 1.02),
  ('CC(=O)OCC(=O)[C@H]1CCC2C3CCC4=CC(=O)CC[C@]4(C)C3CC[C@@]21C (stereo partly drawn)', 'normalized growth', 0.72);

Find the recorded normalized growth belonging to C=C(C)C1CNC(C(=O)O)C1CC(=O)O (stereo not drawn) and report it.
1.07

Find the recorded normalized growth belonging to CC[C@H](/C=C/C(C)C1CCC2C3CCC4=CC(=O)CC[C@]4(C)C3CC[C@]12C)C(C)C (stereo partly drawn) and report it.
1.01

Find the recorded normalized growth belonging to CCC(=O)O[C@H]1CCC2C3CCC4=CC(=O)CC[C@]4(C)C3CC[C@@]21C (stereo partly drawn) and report it.
0.872

Find the recorded normalized growth belonging to `CN1CCC(=C2c3ccccc3Sc3ccccc32)CC1` and report it.
0.765

Find the recorded normalized growth belonging to `O=C(CC[N+](=O)[O-])OC[C@H]1O[C@@H](O)[C@H](OC(=O)CC[N+](=O)[O-])[C@@H](OC(=O)CC[N+](=O)[O-])[C@@H]1OC(=O)CC[N+](=O)[O-]` and report it.
1.04

Find the recorded normalized growth belonging to COc1cc2c(cc1OC)C1C(=O)c3c(OC)cc4c(c3OC1CO2)CCC(C)(C)O4 (stereo not drawn) and report it.
0.948

Find the recorded normalized growth belonging to OCCN1C[C@@H](O)[C@@H](O)C(O)C1CO (stereo partly drawn) and report it.
0.969

Find the recorded normalized growth belonging to CC(=O)[C@H]1CCC2C3CCC4=CC(=O)CC[C@]4(C)C3CC[C@@]21C (stereo partly drawn) and report it.
0.924

Find the recorded normalized growth belonging to CCN(CC)CCCC(C)Nc1ccnc2cc(Cl)ccc12 (stereo not drawn) and report it.
1.02

Find the recorded normalized growth belonging to `C[C@@H]1[C@H]2[C@H](O[C@@H]3O[C@H](CO)[C@@H](O)[C@H](O)[C@H]3O)OC=C(C(=O)O)[C@H]2C[C@@H]1O` and report it.
0.995

Find the recorded normalized growth belonging to CC1=C(CC(=O)O)c2cc(F)ccc2/C1=C\c1ccc(S(C)=O)cc1 (stereo not drawn) and report it.
0.982

Find the recorded normalized growth belonging to CC(=O)OCC(=O)[C@@]1(O)CCC2C3CCC4=CC(=O)CC[C@]4(C)C3C(=O)C[C@@]21C (stereo partly drawn) and report it.
1.05
